Hello, the source for this data is patent US6620593B1, in case you need it.

System: human P450 2C8
Assay: Metabolism (hydroxylation) of substrates using transformed yeast cells or microsomal fractions expressing human P450 2C8
Settings: microsomes
PARAMETER_MEASURED: Hydroxylation activity, human P450 2C8

Example compounds with recorded Hydroxylation activity, human P450 2C8:
N=C(N)N1CCc2ccccc2C1 [Debrisoquine] ... −
O=c1ccc2ccccc2o1 [Coumarin] ... −
CCCCNC(=O)NS(=O)(=O)c1ccc(C)cc1 [Tolbutamide] ... +
CC[C@@]1(c2ccccc2)NC(=O)N(C)C1=O [S-Mephenytoin] ... −
CC(=O)Nc1ccccc1 [Acetanilide] ... + +

Ask | Can you look up Hydroxylation activity, human P450 2C8 on human P450 2C8 for CCOc1ccc2ccc(=O)oc2c1 [7-Ethoxycoumarin] ?
Reply | +
